The values you see were collected from patent US9233961B2.

Test system: L. donovani HU3 strain in mouse peritoneal macrophages
Assay: Assay for proliferation of Leishmania parasites in mouse peritoneal macrophages
Type: cell-based, Leishmania donovani
Details: Leishmania donovani, Peritoneal macrophage, read-out: L. donavani Macrophage EC50
readout-type: log10 EC50 (log10 of the value in µM)
The common logarithm of EC50 in µM is what is listed.

Problem: Check the records and state log10 EC50 for Cc1cnc2nc(-c3cc(NC(=O)NCCN(C(C)C)C(C)C)ccc3Cl)[nH]c2c1
Solution: 1.46

Problem: Indicate its recorded log10 EC50; the compound in question is CCOC(=O)Nc1ccc(Cl)c(-c2nc3ncc(Br)cc3[nH]2)c1
Solution: 0.87

Problem: Kindly indicate its recorded log10 EC50. Item: COc1ccnc(C(=O)Nc2ccc(Cl)c(-c3nc4ncc(C)cc4[nH]3)c2)c1
Solution: 1.26

Problem: Give the measured log10 EC50 for COCCOc1ccc(-c2cnc3nc(-c4cc(NC(=O)N5CCCC5)ccc4Cl)[nH]c3c2)cc1
Solution: -0.40

Problem: Kindly indicate its recorded log10 EC50. Item: CC(C)c1cnc2nc(-c3cc(NC(=O)c4ccco4)ccc3Cl)[nH]c2c1
Solution: 1.54

Problem: Give the reported value of log10 EC50 for this record: Cc1cnc2nc(-c3cc(NC(=O)NC4CCC4)ccc3Cl)[nH]c2c1
Solution: 1.43

Problem: Hello, please tell me recorded log10 EC50 for this one: O=C(Nc1ccc(Cl)c(-c2nc3ncc(-c4ccc(-n5cccn5)cc4)cc3[nH]2)c1)c1ccco1
Solution: 1.20

Problem: Return reported log10 EC50. Input compound: Cc1cnc2nc(-c3cc(NC(=O)Cc4c(F)cccc4F)ccc3Cl)[nH]c2c1
Solution: 1.39

Problem: Provide measured log10 EC50 value, entry: Cc1cnc2nc(-c3cc(NC(=O)c4cccc5c4OCC5)ccc3Cl)[nH]c2c1
Solution: 1.12

Problem: # return recorded log10 EC50 for input O=C(Nc1ccc(Cl)c(-c2nc3ncc(-c4ccncc4)cc3[nH]2)c1)c1ccco1
Solution: 0.05

Problem: Write down log10 EC50 measured for item CNC(=O)Nc1ccc(Cl)c(-c2nc3ncc(C)cc3[nH]2)c1
Solution: 1.47

Problem: Look up and report measured log10 EC50 for this entry: Cc1cnc2nc(-c3cc(NC(=O)c4oc(C)nc4C)ccc3Cl)[nH]c2c1
Solution: 1.41

Problem: Answer with the recorded log10 EC50 of Cc1csc(C(=O)Nc2ccc(Cl)c(-c3nc4ncc(C)cc4[nH]3)c2)c1 only.
Solution: 1.02

Problem: State its log10 EC50 for this compound: O=C(Nc1ccc(Cl)c(-c2nc3ncc(Br)cc3[nH]2)c1)c1ccc(F)o1
Solution: 0.33

Problem: Note down log10 EC50 recorded for CC(C)CC(=O)Nc1ccc(-c2cnc3nc(-c4cc(NC(=O)c5ccco5)ccc4Cl)[nH]c3c2)cc1
Solution: -0.94

Problem: Please supply the value of reported log10 EC50 for the item CNc1ccc(-c2cnc3nc(-c4cc(NC(=O)c5cc(C)cs5)ccc4Cl)[nH]c3c2)cc1
Solution: 0.13

Problem: For the compound CCOC(=O)Nc1ccc(Cl)c(-c2nc3ncc(C)cc3[nH]2)c1 , give its reported log10 EC50.
Solution: 1.02

Problem: Read the entry CS(=O)(=O)c1ccc(-c2cnc3nc(-c4cc(NC(=O)N5CCCC5)ccc4Cl)[nH]c3c2)cc1 and write its reported log10 EC50.
Solution: 0.74

====

Tested on: L. donovani HU3 strain in mouse peritoneal macrophages
Test: Assay for proliferation of Leishmania parasites in mouse peritoneal macrophages
Type: cell-based, Leishmania donovani
Details: Leishmania donovani, Peritoneal macrophage, read-out: L. donavani Macrophage EC50
I'd be grateful if you could share measured EC50 for these entries.
Numbers only; they are read as µM.

Problem: Indicate the recorded EC50 value for this molecule: Cc1cnc2nc(-c3cc(NC(=O)Cc4ccc(F)cc4)ccc3Cl)[nH]c2c1
Solution: 8.6

Problem: Give the reported value of EC50 for this record: CC(C)OC(=O)Nc1ccc(Cl)c(-c2nc3ncc(-c4ccc(NC(=O)CN)cc4)cc3[nH]2)c1
Solution: 0.42

Problem: Please look at this molecule and report its EC50: CN(C)Cc1ccc(C(=O)Nc2ccc(Cl)c(-c3nc4ncc(C(F)(F)F)cc4[nH]3)c2)o1
Solution: 15.2

Problem: Note EC50 for the molecule shown: CSc1nccc(C(=O)Nc2ccc(Cl)c(-c3nc4ncc(C)cc4[nH]3)c2)n1
Solution: 15.9

Problem: Fill in EC50 for record CNc1ccc(-c2cnc3nc(-c4cc(NC(=O)N5CCCC5)ccc4Cl)[nH]c3c2)cc1
Solution: 0.17

Problem: State its EC50 for this molecule: Cc1cnc2nc(-c3cc(Nc4nccc5c4CCN(Cc4ccccc4)C5)ccc3Cl)[nH]c2c1
Solution: 15.6

Problem: Please report the measured EC50 for Cc1cnc2nc(-c3cc(NC(=O)c4cc(Cl)ccc4Cl)ccc3Cl)[nH]c2c1
Solution: 23.5

Problem: Please look at this molecule and report its EC50: O=C1Cc2cc(-c3cnc4nc(-c5cc(NC(=O)C6CCCC6)ccc5Cl)[nH]c4c3)ccc2N1
Solution: 5.8

Problem: Input Cc1cnc2nc(-c3cc(NC(=O)c4csc(C)n4)ccc3Cl)[nH]c2c1 , output reported EC50.
Solution: 21.5

Problem: Please report EC50 for the following molecule: O=C(Nc1ccc(Cl)c(-c2nc3ncc(-c4cccc(OCCN5CCOCC5)c4)cc3[nH]2)c1)N1CCCC1
Solution: 1.05

Problem: Give recorded EC50. CN(C)Cc1ccc(-c2cnc3nc(-c4cc(NC(=O)c5ccco5)ccc4Cl)[nH]c3c2)cc1
Solution: 0.72

Problem: Provide one value: measured EC50 of Cc1cnc2nc(-c3cc(NC(=O)c4cccn4C)ccc3Cl)[nH]c2c1
Solution: 19.5

Problem: # return recorded EC50 for input Nc1ccccc1-c1cnc2nc(-c3cc(NC(=O)c4ccco4)ccc3Cl)[nH]c2c1
Solution: 0.37

Problem: Given the molecule O=C(Nc1ccc(Cl)c(-c2nc3ncc(-c4ccsc4)cc3[nH]2)c1)N1CCCC1 , write its reported EC50.
Solution: 0.289

Problem: Report measured EC50; entry is Cc1cnc2nc(-c3cc(NC(=O)C(F)(F)c4ccccc4)ccc3Cl)[nH]c2c1
Solution: 23.4

Problem: Give reported EC50 value for CN(C)c1ccc(-c2cnc3nc(-c4cc(NC(=O)c5ccco5)ccc4Cl)[nH]c3c2)cc1
Solution: 2.5

Problem: Provide EC50 value for the following molecule: CCOC(=O)Nc1ccc(Cl)c(-c2nc3ncc(-c4ccc(NC)cc4)cc3[nH]2)c1
Solution: 3.7

Problem: For the molecule CN1CCc2cc(-c3cnc4nc(-c5cc(NC(=O)c6ccco6)ccc5Cl)[nH]c4c3)ccc21 , give its reported EC50.
Solution: 3.7

Problem: Give EC50 for O=C(Nc1ccc(Cl)c(-c2nc3ncc(-c4ccc(OCC5CC5)cc4)cc3[nH]2)c1)c1ccco1
Solution: 2.27

Problem: Give EC50 for the following molecule: Cc1cnc2nc(-c3cc(NC(=O)c4ccccc4N(C)C)ccc3Cl)[nH]c2c1
Solution: 22.8

Problem: Output measured EC50 for this item: Cc1ccnc(C(=O)Nc2ccc(Cl)c(-c3nc4ncc(C)cc4[nH]3)c2)c1
Solution: 23.7

Problem: Supply EC50 value. Item: COc1cccc(C(=O)Nc2ccc(Cl)c(-c3nc4ncc(C)cc4[nH]3)c2)c1
Solution: 13.9

Problem: Recall and state the measured EC50 for COc1ccc(-c2cnc3nc(-c4cc(NC(=O)c5ccco5)ccc4Cl)[nH]c3c2)cn1 .
Solution: 2.29

====

Test system: Leishmania donovani axenic amastigote parasites
Assay: Leishmania donovani axenic amastigote proliferation assay
Type: cell-based
Conditions: axenic amastigotes in vitro, read-out: L. donovani amastigotes EC50
readout-type: log10(EC50) (log10 of the value in µM)
Transform log10 | Measure EC50 | Unit µM

Problem: Provide log10(EC50) value for the following compound: COC(=O)Nc1ccc(-c2cnc3nc(-c4cc(NC(=O)c5ccco5)ccc4Cl)[nH]c3c2)cc1
Solution: -1.29

Problem: Report measured log10(EC50); entry is CCOC(=O)Nc1ccc(Cl)c(-c2nc3ncc(C#N)cc3[nH]2)c1
Solution: 0.62

Problem: Quick one: give measured log10(EC50) for CN(C)c1ccc(-c2cnc3nc(-c4cc(NC(=O)c5ccco5)ccc4Cl)[nH]c3c2)cc1
Solution: 0.33

Problem: Look up and state reported log10(EC50) for O=C(Nc1ccc(F)c(-c2nc3ncc(Br)cc3[nH]2)c1)N1CCOCC1
Solution: 1.30

Problem: Check the records and state log10(EC50) for O=C(Nc1ccc(Cl)c(-c2nc3ncc(-c4ccnc(F)c4)cc3[nH]2)c1)c1ccco1
Solution: -0.76

Problem: Note down log10(EC50) recorded for Cc1cnc2nc(-c3cc(NC(=O)c4cnccn4)ccc3Cl)[nH]c2c1
Solution: 0.19

Problem: Look up log10(EC50) of N#Cc1cnc2nc(-c3cc(NC(=O)c4ccco4)ccc3Cl)[nH]c2c1 and report it.
Solution: -0.21

Problem: Recall and state the measured log10(EC50) for O=C(Nc1ccc(Cl)c(-c2nc3ncc(C(F)(F)F)cc3[nH]2)c1)c1ccco1 .
Solution: 0.19

Problem: Fill in log10(EC50) for record Cc1cnc2nc(-c3cc(NC(=O)N(C)C)ccc3Cl)[nH]c2c1
Solution: 0.70

Problem: Read the entry Cc1cnc2nc(-c3cc(NC(=O)N4CCCCC4)ccc3Cl)[nH]c2c1 and write its reported log10(EC50).
Solution: 1.14

Problem: State its log10(EC50): Cc1ccc(C(=O)Nc2ccc(F)c(-c3nc4ncc(-c5ccccc5)cc4[nH]3)c2)o1
Solution: 0.76

Problem: Indicate the recorded log10(EC50) value for this compound: CC(C)OC(=O)Nc1ccc(Cl)c(-c2nc3ncc(-c4ccccc4NC(=O)CN)cc3[nH]2)c1
Solution: 1.07

Problem: Report log10(EC50) for O=C(Nc1ccc(Cl)c(-c2nc3ncc(Cl)cc3[nH]2)c1)c1ccco1
Solution: 0.14

Problem: Annotate the compound CON(C)C(=O)Nc1ccc(Cl)c(-c2nc3ncc(C)cc3[nH]2)c1 with its measured log10(EC50).
Solution: 0.31

Problem: State, in one line, measured log10(EC50) of NCc1cnc2nc(-c3cc(NC(=O)c4ccco4)ccc3Cl)[nH]c2c1
Solution: -0.60

Problem: Given the compound [2H]C([2H])([2H])C([2H])([2H])OC(=O)Nc1ccc(Cl)c(-c2nc3ncc(C)cc3[nH]2)c1 , write its reported log10(EC50).
Solution: 1.12

Problem: Let me know recorded log10(EC50) for O=C1Cc2cc(-c3cnc4nc(-c5cc(NC(=O)c6ccco6)ccc5Cl)[nH]c4c3)ccc2N1 , thanks.
Solution: -0.14

Problem: Indicate its recorded log10(EC50); the compound in question is O=C(Nc1ccc(F)c(-c2nc3ncc(Br)cc3[nH]2)c1)c1cc[nH]n1
Solution: 1.28
